experimental-details: Henry solubility constant Hcp at 298.15 K (mol/(m3 Pa))
test-parameters: reference: Schoene and Steinhanses (1985)
test-readout: Henry solubility constant Hcp
Numbers only.

# count of solved cases: 3
mol-smiles	test-readout	value-reported
ClC=C(Cl)Cl	Henry solubility constant Hcp	0.0009
N#Cc1c(Cl)cccc1Cl	Henry solubility constant Hcp	0.48
CC(C)=O	Henry solubility constant Hcp	0.32

Q. Suppose we examine the molecule Cc1ccccc1 ; what Henry solubility constant Hcp value has been reported?
A. 0.0012

###

experimental-details: Henry solubility constant Hcp at 298.15 K (mol/(m3 Pa))
test-parameters: reference: Bowden et al. (1998a)
Would you kindly list Henry solubility constant Hcp for each of these compounds?
Give bare numbers.

Previously resolved entries follow.
compound	value-reported
O=C(O)C(Br)(Br)Br [tribromoethanoic acid]	2900
O=C(O)CBr [bromoethanoic acid]	1500
O=C(O)CF [fluoroethanoic acid]	800
O=C(O)C(Cl)Cl [dichloroethanoic acid]	1200

Now consider a different compound.
Q. Endpoint output: Henry solubility constant Hcp of O=C(O)C(Br)Br [dibromoethanoic acid] . Value?
A. 2200

###

Assign Henry solubility constant Hcp to each entry below.
experimental-details: Henry solubility constant Hcp at 298.15 K (mol/(m3 Pa))
test-parameters: reference: Nielsen et al. (1994)

// each listed compound needs a value for Henry solubility constant Hcp
1. Cc1ccccc1 [methylbenzene]
2. c1ccccc1 [benzene]

A.
1. 0.0016
2. 0.002

Please supply Henry solubility constant Hcp for each of the following items, keeping them in order.
1. ClC=C(Cl)Cl [trichloroethene]
2. CCOCC [diethyl ether]
3. C1=CCCCC1 [cyclohexene]
4. CC(C)OC(C)C [diisopropyl ether]

A.
[0.0013, 0.011, 0.00025, 0.0048]

###

experimental-details: Henry solubility constant Hcp at 298.15 K (mol/(m3 Pa))
test-parameters: reference: Hwang et al. (2010)
test-readout: Henry solubility constant Hcp
Answers are plain numbers.

Worked examples, 3 compounds total:
mol-smiles	value-reported
CC(C)OC(C)C	0.015
CCOC(C)(C)C	0.12
C=COCCC	0.0031

Turning now to a further record.
Q. Any idea what its Henry solubility constant Hcp is? The compound is CCC(C)(C)OC
A. 0.053

###

Kindly state Henry solubility constant Hcp for each of the entries shown.
experimental-details: Henry solubility constant Hcp at 298.15 K (mol/(m3 Pa))
test-parameters: reference: Wu and Chang (2011)
Give bare numbers.

Answered examples (3):
molecule	Henry solubility constant Hcp
OCCC(F)(F)C(F)(F)C(F)(F)C(F)(F)C(F)(F)C(F)(F)C(F)(F)C(F)(F)F	0.0002
OCCC(F)(F)C(F)(F)C(F)(F)C(F)(F)C(F)(F)C(F)(F)C(F)(F)C(F)(F)C(F)(F)C(F)(F)F [1,1,2,2-tetrahydroperfluoro dodecanol]	0.00013
OCCC(F)(F)C(F)(F)C(F)(F)C(F)(F)C(F)(F)C(F)(F)F	0.00017

Kindly review the next molecule as well.
Q. Could you share which Henry solubility constant Hcp value was measured for OCCC(F)(F)C(F)(F)C(F)(F)C(F)(F)F ?
A. 0.0066

###

Give measured Henry solubility constant Hcp for each item. Keep answers brief.
experimental-details: Henry solubility constant Hcp at 298.15 K (mol/(m3 Pa))
test-parameters: reference: McFall et al. (2020)
Answers are plain numbers.

compound	Henry solubility constant Hcp
CCOCc1ccc(O)c(OC)c1 [vanillyl ethyl ether]	410

Return reported Henry solubility constant Hcp values for all items listed beneath this line.
1. COc1cc(CO)ccc1O [vanillyl alcohol]
2. C=CCc1ccc(O)c(OC)c1 [2-methoxy-4-(2-propenyl)-phenol]
3. CCCc1ccc(O)c(OC)c1 [4-propylguaiacol]
4. COc1cc(CCC(C)=O)ccc1O [zingerone]
5. COc1cc(CCC(C)=O)cc(OC)c1O [syringylacetone]

A.
96000
9.2
4.3
12000
1.2e+06

Would you be so kind as to report Henry solubility constant Hcp for each listed record?
1. COc1cc(CC(C)=O)ccc1O [guaiacylacetone]
2. COc1ccccc1O [1-hydroxy-2-methoxybenzene]

A.
[12000, 8.6]

###

experimental-details: Henry solubility constant Hcp at 298.15 K (mol/(m3 Pa))
test-parameters: reference: Kieckbusch and King (1979b)
Please respond with reported Henry solubility constant Hcp for every item in the list.
Answers are plain numbers.

Some compounds with known Henry solubility constant Hcp results, for comparison:
compound	value-reported
CCCCCOC(C)=O [pentyl ethanoate]	0.028
COC(C)=O [methyl ethanoate]	0.077
CCCOC(C)=O [propyl ethanoate]	0.045
CCCCOC(C)=O [butyl ethanoate]	0.035

Please turn your attention to the following entry.
Q. Fill in the blank: the reported Henry solubility constant Hcp of CCOC(C)=O [ethyl ethanoate] is ____.
A. 0.058

###

experimental-details: Henry solubility constant Hcp at 298.15 K (mol/(m3 Pa))
test-parameters: reference: Warner et al. (1980)
The threshold is inclusive: Henry solubility constant Hcp of exactly 0.01 counts as yes (1); values below receive no (0).

Below are worked cases with known answers.
molecule	class-name
ClC1=C(Cl)C2(Cl)C3C(Cl)C=CC3C1(Cl)C2(Cl)Cl (stereo not given)	no (0)
ClC(Cl)Br	no (0)
ClC1=C(Cl)[C@]2(Cl)C3C(Cl)C(Cl)CC3[C@@]1(Cl)C2(Cl)Cl (stereo not given in full)	yes (1)
ClC(Br)Br	yes (1)

Q. # check: Henry solubility constant Hcp of Clc1ccc(Cl)cc1 is greater than or equal to 0.01
A. no (0)

###

experimental-details: Henry solubility constant Hcp at 310 K (mol/(m3 Pa))
test-parameters: reference: Power and Stegall (1970)
Would you kindly list Henry solubility constant Hcp at 310 K for each of these compounds?

compound	value-reported
O=C=O [carbon dioxide]	0.00024
[Ne]	4.3e-06
[C-]#[O+] [carbon monoxide]	8.3e-06
[HH] [hydrogen]	7.2e-06

Here are 2 compounds. What values of Henry solubility constant Hcp at 310 K were reported for them?
1. O=O
2. FS(F)(F)(F)(F)F [sulfur hexafluoride]

A.
1.1e-05
1.7e-06

###

experimental-details: Henry solubility constant Hcp at 298.15 K (mol/(m3 Pa))
test-parameters: reference: Hawthorne et al. (1985)
test-readout: Henry solubility constant Hcp
Numbers only.

mol-smiles	Henry solubility constant Hcp
Cc1ccnc(C)c1	0.99
Cc1cccc(C)n1	0.66
O=C1CCCCC1	0.82
CCCC(C)=O	0.09

Now take the following compound into account.
Q. Fill in: Henry solubility constant Hcp of O=C1CCCC1 is ___
A. 0.82

###

experimental-details: Henry solubility constant Hcp at 298.15 K (mol/(m3 Pa))
test-parameters: reference: Winkler (1906)
For each of the compounds below, state its Henry solubility constant Hcp.

compound	Henry solubility constant Hcp
[Ar] [argon]	1.5e-05
C=C [ethene]	4.8e-05
C#C [ethyne]	0.00041
O=C=S [carbon oxide sulfide]	0.00021

Please turn your attention to the following entry.
Q. Return reported Henry solubility constant Hcp; argument: BrBr [bromine (molecular)]
A. 0.0078

###

experimental-details: Henry solubility constant Hcp at 298.15 K (mol/(m3 Pa))
test-parameters: reference: Murphy et al. (1983a)
test-readout: Henry solubility constant Hcp
One number for each entry.

Use the examples below as a reference point.
mol-smiles	Henry solubility constant Hcp
Clc1ccc(-c2ccccc2Cl)cc1	0.045
Clc1ccc(-c2cc(Cl)c(Cl)c(Cl)c2Cl)c(Cl)c1	0.021
Clc1ccc(-c2c(Cl)ccc(Cl)c2Cl)cc1Cl	0.027
Clc1ccc(-c2cc(Cl)ccc2Cl)c(Cl)c1	0.049
Clc1ccc(Cl)c(-c2c(Cl)cc(Cl)c(Cl)c2Cl)c1	0.016
Clc1ccc(Cl)c(-c2cccc(Cl)c2Cl)c1	0.041

// each listed molecule needs a value for Henry solubility constant Hcp
1. Clc1ccc(Cl)c(-c2cc(Cl)c(Cl)c(Cl)c2Cl)c1
2. Clc1cc(Cl)c(-c2ccc(Cl)c(Cl)c2Cl)cc1Cl
3. Clc1ccccc1-c1ccccc1Cl
4. Clc1ccc(-c2cc(Cl)c(Cl)c(Cl)c2Cl)cc1Cl
5. Clc1ccc(Cl)c(-c2ccccc2Cl)c1
6. Clc1cc(Cl)c(-c2c(Cl)cc(Cl)c(Cl)c2Cl)cc1Cl
7. Clc1ccc(-c2c(Cl)cc(Cl)c(Cl)c2Cl)cc1Cl
8. Clc1ccccc1-c1c(Cl)cccc1Cl

A.
1: 0.025; 2: 0.021; 3: 0.045; 4: 0.011; 5: 0.049; 6: 0.016; 7: 0.015; 8: 0.047

For each of the molecules below, state Henry solubility constant Hcp.
1. Clc1cc(Cl)c(-c2cc(Cl)c(Cl)cc2Cl)cc1Cl
2. Clc1ccc(Cl)c(-c2ccc(Cl)c(Cl)c2)c1

A.
[0.028, 0.049]
